# Assay Method Text: chemical genetic growth profiling, strain panel (AID 1159580);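 further: tested at 20 µM; growth read once vehicle control cultures reached saturation at 30 °C; 1 = growth at the plate median or of vehicle wells; lower values mean less growth of the strain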
# Stated Conditions: S. cerevisiae deletion strains, growth OD, locus YNL271C, strain bni1, stronger effect = lower value
The whole screen tested about 5,500 compounds, of which about 2,000 (36%) were called active. About 18% were inconclusive and are not listed. Some of the results follow.
Reported normalized growth values for the following molecules.
Property: normalized growth

[[record]]
molecule = "COc1cc2c(cc1OC)C1Cc3ccc(OC)c(OC)c3CN1CC2 (stereo unspecified)"
assay_value = 0.976

[[record]]
molecule = "CC(C)C(=O)Nc1ccc([N+](=O)[O-])c(C(F)(F)F)c1"
assay_value = 0.975

[[record]]
molecule = "CO/N=C(\\C(=O)N[C@@H]1C(=O)N2C(C(=O)O)=C(CSc3nc(=O)c(O)nn3C)CS[C@H]12)c1csc(N)n1"
assay_value = 0.992

[[record]]
molecule = "C/C1=C\\CCC(=O)C2CC(C)(C)C2CC1 (stereo unspecified)"
assay_value = 1.02

[[record]]
molecule = "CC(C)COCC(CN(Cc1ccccc1)c1ccccc1)N1CCCC1 (stereo unspecified)"
assay_value = 0.992

[[record]]
molecule = "COc1ccc2c(c1)CCC(c1ccccc1)=C2c1ccc(OCCN2CCCC2)cc1"
assay_value = 0.992

[[record]]
molecule = "C[N+]1(C)C2CC(OC(=O)[C@@H](CO)c3ccccc3)CC1C1OC12 (stereo partly specified)"
assay_value = 1.01

[[record]]
molecule = "CC1(C)C2CC(=O)[C@]3(C)C(CC[C@@]4(C)[C@H](c5ccoc5)OC(=O)[C@H]5O[C@]543)[C@@]2(C)C=C[C@@H]1O (stereo partly specified)"
assay_value = 1

[[record]]
molecule = "CC(C)[C@@H]1CC[C@@H](C)C[C@H]1O"
assay_value = 1.02

[[record]]
molecule = "O=C(O)c1cc2cc(Cc3cccnc3)ccc2o1"
assay_value = 0.999

[[record]]
molecule = "C=C1CCC2C(CC2(C)C)C(=O)CCC1O (stereo unspecified)"
assay_value = 1.01

